# MEASUREMENT_DESCRIPTION: recombinant barcode read abundance after kanamycin selection (control-corrected) (log10(CPM+1)); higher = more efficient recombination; sequences stand for … in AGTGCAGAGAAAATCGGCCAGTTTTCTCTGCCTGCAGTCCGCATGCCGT…ATTTATGCAGCGGACTGCCTTTCTCCCAAAGTGATAAACCGGACAGTATCATGGACCGGTTTTCCCGGTAATCCGTATTTGCAAGGTTGGTTTCACT; site = the 11-nt target
Label YES when recombinant barcode read abundance (log10) is at or above 0.08; otherwise label NO.

Example cases with answers are listed next.
POLYMER_SEQUENCE	CLASSIFICATION
GGACACCTTTGGGTTCTAACCTGTTGCCTAG [GGACACCCTAG_LTGcore_TT_RTGcore_CT] (site GGACACCCTAG) (LTG core: TT, RTG core: CT)	NO
AGGCGGTAGTGGGTTCTAACCTGTTGCTTCT [AGGCGGTCTAA_LTGcore_AG_RTGcore_AG] (site AGGCGGTCTAA) (LTG core: AG, RTG core: AG)	YES
GCGGGACCTTGGGTTCTAACCTGTTGCCTGT [GCGGGACCTAG_LTGcore_CT_RTGcore_AC] (site GCGGGACCTAG) (LTG core: CT, RTG core: AC)	YES
CGAGCCCCCTGGGTTCTAACCTGTTGCTGAG [CGAGCCCCTCA_LTGcore_CC_RTGcore_CT] (site CGAGCCCCTCA) (LTG core: CC, RTG core: CT)	YES

// next entry
Q: Given TCGCGACCATGGGTTCTAACCTGTTGCCGAG [TCGCGACCTCG_LTGcore_CA_RTGcore_CT] (site TCGCGACCTCG) (LTG core: CA, RTG core: CT) , state whether its recombinant barcode read abundance (log10) is at least 0.08.
Result: NO
